Attribution: PubChem BioAssay (NCATS)

assay info: Cell Proliferation Assay against the TMD8 Cell Line (Caspase readout at 8 hrs) (AID 651713); note: potency is the fitted concentration of half-maximal effect
condition set: TMD8 lymphoma cells, caspase activation luminescence; series mostly up to 46.1 µM
Records with an inconclusive call do not appear. Activity calls are given as the source filed them. Calls come from the whole dose curve; as a rule, active = well fitted activation curve with a large enough effect; inconclusive = small, poorly fitted or top-dose-only effect, or another doubt; inactive = no such curve, though single readings can be large or run the other way.
measured metric: Potency

INSERT INTO measurements (compound, obs_value) VALUES
  ('CCOC(=O)C1=C(O)C(=O)N(Cc2ccccc2)C1', 'inactive'),
  ('Cc1nc(Nc2ncc(C(=O)Nc3c(C)cccc3Cl)s2)cc(N2CCN(CCO)CC2)n1', 'inactive'),
  ('CCN(CC)CCOc1ccc(Nc2ncc3cc(-c4c(Cl)cccc4Cl)c(=O)n(C)c3n2)cc1', '26.4 µM (active)'),
  ('CCOC(=O)C(C)Oc1cccc2c(=O)n(CC(=O)Nc3ccc4c(c3)OCCO4)ccc12 (stereo not drawn)', 'inactive'),
  ('S=c1nc[nH]c2nc[nH]c12', 'inactive');

Item Nc1cccc2c1CN(C1CCC(=O)NC1=O)C2=O (stereo not drawn) has what recorded Potency?
inactive

Please do the same for Cc1cccc(-c2[nH]ncc2-c2ccc3ncccc3n2)n1 as well.
inactive

Please do the same for Cc1ccc(Nc2nccc(N(C)c3ccc4c(C)n(C)nc4c3)n2)cc1S(N)(=O)=O as well.
inactive

* * *

assay info: Quantitative High-Throughput drug screen in 47 multiple myeloma cell lines against the NCATS MIPE library collection: Karpas25_ECACC cell viability assay (AID 1918968; note: nearly all actives have a fitted effect of over 35% in size)
condition set: Karpas25 myeloma viability, CellTiter-Glo ATP, 48 h; series mostly up to 45.8 µM
Results filed as inconclusive are left out. The source made the active and inactive calls. Calls follow the shape of the dose curve; as a rule, active = well fitted cell-killing curve with a large enough effect; inconclusive = small, poorly fitted or top-dose-only effect, or effect the other way; inactive = no such curve, though single readings can be large or run the other way.
Entry note: the call must match one of true = active, false = inactive

INSERT INTO measurements (compound, group_label) VALUES
  ('CCN(CC)C(=S)SSC(=S)N(CC)CC', 'true');

What classification did CCC1=C(C)CN(C(=O)NCCc2ccc(S(=O)(=O)NC(=O)NC3CCC(C)CC3)cc2)C1=O (stereo unspecified) end up with in this test?
false

Please do the same for C[C@H](Cn1cnc2c(N)ncnc21)OCP(=O)(O)O as well.
false

Please do the same for c1cnc2cc3c(cc2n1)C1CNCC3C1 as well.
false

Please do the same for O=C(CS(=O)Cc1ccco1)NCC=CCOc1cc(CN2CCCCC2)ccn1 (stereo unspecified) as well.
true

Please do the same for CC1(C)CCC(C)(C)c2cc(NC(=O)c3ccc(C(=O)O)cc3)ccc21 as well.
true

* * *

assay info: Quantitative High-Throughput drug screen in 47 multiple myeloma cell lines against the NCATS MIPE library collection: ARD_JJKsccE7 cell viability assay (AID 1918929; note: potency is the fitted concentration of half-maximal effect)
condition set: ARD myeloma cell line viability, CellTiter-Glo, 48 h; series mostly up to 45.8 µM
Text: PI: Beverly A. Mock Ph.D. Laboratory of Cancer Biology and Genetics, Center for Cancer Research, National Cancer Institute, National Institute of Health, Bethesda, Maryland […] 5; Detector; 425V; Luminescence; Viewlux PerkinElmer. […] 1. […] Briefly, the corresponding myeloma cell lines were screened in 1,536-well plates with 500 cells, 5-uL per well for inhibition of cell viability (assessed by measuring ATP levels with CellTiterGlo). […]
Results filed as inconclusive are left out. Calls of active or inactive are those of the source. Calls follow the shape of the dose curve; as a rule, active = well fitted cell-killing curve with a large enough effect; inconclusive = small, poorly fitted or top-dose-only effect, or effect the other way; inactive = no such curve, though single readings can be large or run the other way.
measured metric: Potency

INSERT INTO measurements (compound, obs_value) VALUES
  ('O=C(O)c1cc(=O)c2c(OCC(O)COc3cccc4oc(C(=O)O)cc(=O)c34)cccc2o1', 'inactive'),
  ('Cc1nccn1CC1CCc2c(c3ccccc3n2C)C1=O (stereo unspecified)', 'inactive'),
  ('CC1(C)C(=O)N(CCN2CCC(C(=O)c3ccc(F)cc3)CC2)c2ccccc21', '9.35 µM (active)'),
  ('CCCOc1ccc2nc(NC(=O)OC)[nH]c2c1', '0.001 µM (active)'),
  ('C[Se]CCC(N)C(=O)O (stereo unspecified)', 'inactive');

Item Cc1nc2n(c(=O)c1CCN1CCC(c3noc4cc(F)ccc34)CC1)CCCC2 has what recorded Potency?
inactive
